Assay: Microsomal stability assay, human liver microsomes
Assay type: in vitro ADME
Settings: pH 7.4, 1 μM compound, 0.5 mg/mL protein, 37° C., read-out: HLM +/− NADPH: Clint (μL/min/mg protein)
Attribute: microsomal CLint at 1 μM

Answered cases to consult:
CC(=O)NN1C(=O)N(c2ccc(C(C)(C)c3cc(Cl)c(OCCCl)c(Cl)c3)cc2)C(=O)C1(C)C	< 12 µL/min/mg
CC(Oc1ccc(C(C)(C)c2cc(Cl)c(OCCCl)c(C#N)c2)cc1)c1coc(NS(C)(=O)=O)n1 (stereo not shown)	< 12 µL/min/mg
CC(Oc1ccc(C(C)(C)c2cc(Cl)c(OCCCl)c(Cl)c2)cc1)c1[nH]cnc1S(C)(=O)=O (stereo not shown)	12 to 48 µL/min/mg
CSc1nnc(COc2ccc(C(C)(C)c3cc(Cl)c(OCCCCl)c(Cl)c3)cc2)o1	< 12 µL/min/mg
CC(C)(c1ccc(OCc2cnc(C#N)o2)cc1)c1cc(Cl)c(OCCCl)c(C#N)c1	12 to 48 µL/min/mg
Cc1cnc(NS(C)(=O)=O)nc1COc1ccc(C(C)(C)c2cc(Cl)c(OCCCl)c(C#N)c2)cc1	< 12 µL/min/mg

Let's switch to this compound now.
Exam item: I would be grateful if you could share the reported microsomal CLint at 1 μM for "CC(C)(c1ccc(OCc2cnc(Cl)o2)cc1)c1cc(Cl)c(OCCCl)c(C#N)c1" .
Marked response: < 12 µL/min/mg
